tested on: AA1029; assay: qHTS profiling for inhibitors of Plasmodium falciparum proliferation (AID 504749);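 also: 0% = DMSO vehicle and full inhibition = artemisinin control; nearly all actives have a fitted effect of over 60% in size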; conditions: P. falciparum in erythrocytes, SYBR Green DNA, 72 h; series mostly up to 28.7 µM
Records with an inconclusive call do not appear. The source made the active and inactive calls. Calls follow the shape of the dose curve; as a rule, active = well fitted inhibition curve with a large enough effect; inconclusive = small, poorly fitted or top-dose-only effect; inactive = flat fitted curve, though single readings scatter.
assayMetric: outcome

O=C1c2ccccc2C(=O)C1C(=O)C(c1ccccc1)c1ccccc1 :: inactive
O=P1(N(CCCl)CCCl)NCCCO1 (configuration not stated) :: inactive
Clc1ccc2c(c1)C(c1ccccc1)=NCc1nncn1-2 :: inactive
CCC(C)(C)c1ccc(O)cc1 :: inactive

--- query ---
Q. Which outcome is reported with AA1029 for this entry: CC(C)=CC1C(C(=O)OCN2C(=O)C3=C(CCCC3)C2=O)C1(C)C (configuration not stated) ?
A. inactive

====

Reported parasite growth remaining, % of DMSO control (lower = more inhibition) values for a set of molecules
assay: qHTS profiling of the MIPE4 collection as inhibitors of Plasmodium falciparum (DD2) proliferation (AID 743345); conditions: P. falciparum Dd2 in erythrocytes, SYBR Green DNA, 72 h; at 28.5 µM (top of the series) unless noted
Form entry: value (% [at 9.64 µM]) — number only.

Nc1ccn(C[C@@H](CO)OCP(=O)(O)O)c(=O)n1 :: 103

Q. GET /values?readout=parasite growth remaining, % of DMSO control (lower = more inhibition)&item= O=P(O)(O)C(O)(Cn1ccnc1)P(=O)(O)O
A. 90.7

====

molecular target: Cytochrome P450 2D6 (Homo sapiens) (UniProt P10635); assay: Cytochrome P450 family 2 subfamily D member 6 (CYP2D6) small molecule antagonists: luciferase biochemical (cell-free) qHTS assay (AID 1645840); conditions: P450-Glo CYP2D6 enzyme, luciferin luminescence, 1 h; series mostly up to 57.4 µM; also: nearly all actives have a fitted effect of over 55% in size; also: potency is read from the fitted curve at half-maximal effect
Sequence (P10635 whole entry, looked up): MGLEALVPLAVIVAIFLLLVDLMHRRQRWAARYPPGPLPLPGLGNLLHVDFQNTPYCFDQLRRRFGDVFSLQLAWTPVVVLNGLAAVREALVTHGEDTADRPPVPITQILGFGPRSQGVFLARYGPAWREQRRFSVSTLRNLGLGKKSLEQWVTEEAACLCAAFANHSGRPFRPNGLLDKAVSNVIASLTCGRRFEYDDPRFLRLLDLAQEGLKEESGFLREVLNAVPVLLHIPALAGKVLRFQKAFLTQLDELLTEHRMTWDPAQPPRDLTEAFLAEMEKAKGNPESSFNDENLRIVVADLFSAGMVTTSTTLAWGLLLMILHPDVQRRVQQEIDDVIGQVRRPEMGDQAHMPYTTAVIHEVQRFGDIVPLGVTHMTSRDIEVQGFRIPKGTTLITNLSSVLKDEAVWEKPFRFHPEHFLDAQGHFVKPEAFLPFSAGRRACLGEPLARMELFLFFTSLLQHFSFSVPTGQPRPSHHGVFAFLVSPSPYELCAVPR
Results filed as inconclusive are left out. Calls of active or inactive are those of the source. Calls come from the whole dose curve; as a rule, active = well fitted inhibition curve with a large enough effect in the repeat runs; inconclusive = weak or mixed curves; inactive = flat fitted curve, though single readings scatter.
assayMetric: Potency

COc1cccc([C@@]2(O)CCCC[C@@H]2CN(C)C)c1 :: inactive
C[C@]12CCC(=O)C=C1CC[C@@H]1[C@@H]2CC[C@]2(C)C(=O)CC[C@@H]12 :: inactive
CC(C)c1c(CN(C)C(C)Cc2ccccc2)n(C)n(-c2ccccc2)c1=O (centres undefined) :: inactive
COP(=S)(OC)Oc1ccc(S(=O)(=O)N(C)C)cc1 :: inactive
CN1C(=O)CCS(=O)(=O)C1c1ccc(Cl)cc1 (centres undefined) :: inactive

Q. Which Potency is reported with Cytochrome P450 2D6 (Homo sapiens) (UniProt P10635) for this entry: C[C@]12Cc3cn[nH]c3C[C@@H]1CC[C@@H]1[C@@H]2CC[C@@]2(C)[C@H]1CC[C@]2(C)O ?
A. 1.95 µM (active)

Q. CCCOC(=O)c1cncn1C(C)c1ccccc1 (centres undefined) ?
A. inactive

Q. C[C@]12CC[C@@H]3c4ccc(OC(=O)N(CCCl)CCCl)cc4CC[C@H]3[C@@H]1CC[C@@H]2O ?
A. inactive

Q. C[C@H]1[C@@H]2Cc3ccc(O)cc3[C@@]1(C)CCN2C ?
A. 107 µM (active)

Q. C#CC(O)(C=CCl)CC (centres undefined) ?
A. inactive

Q. CC(=O)NC1CCSC1=O (centres undefined) ?
A. inactive

Q. COP(=S)(OC)SCN1C(=O)c2ccccc2C1=O ?
A. 15.5 µM (active)
